- System: TO-N3 (biotin conjugate)
- assay.overview: pull-down binding Z-score (relative to library population); higher = stronger binding
- particulars: RNA library: Library-2
Each record's pull-down binding Z-score is compared with zone 1: < -0.4; zone 2: ≥ -0.4 and < 0.2; zone 3: ≥ 0.2 to give its class.

Query block: Which bin, given its pull-down binding Z-score, does CUGGGCCAUAAGGACCAG [IAV_invivo_NP_5_Motif_20+IAV_invivo_NP_5_Motif_20] occupy?
Result block: zone 1

Query block: Please let me know in which category the item GUUGUAGACGGUUGUAAUUCAUCAACUUGUAUGAUGUGUUACAAACGUAAUAGAGCAAC belongs.
Result block: zone 1

Query block: Class label required: CGGAUCUCGAGGGUGCUUAUUGUUCGGUCCG [hsa-mir-615]
Result block: zone 2

Query block: Please let me know in which category the item CUGUGGUCUAACCUUUCCCAUCU [hsa-mir-6828] belongs.
Result block: zone 2

Query block: # bin label for CUAGUAUGUCUCAUCCCCUACUAG [hsa-mir-151a]
Result block: zone 2

Query block: Note: place this sequence into its band. Item: GGACGUCACCACCAUGGCC [hsa-mir-650]
Result block: zone 3

Query block: Class label required: CAAUUUGAGACCAAU [hsa-mir-1285-2]
Result block: zone 2

Query block: Lab note: sort GCCACAAAGGC [IAV_invivo_PA_3_Motif_6+IAV_invivo_PA_3_Motif_6] into the matching pull-down binding Z-score band.
Result block: zone 1

----------
- Test system: TO-N3 (biotin conjugate)
- assay.overview: pull-down binding Z-score (relative to library population); higher = stronger binding
- particulars: RNA library: Library-2
property.measured: pull-down binding Z-score
Reply with the value as a number alone.

Some sequences with known pull-down binding Z-score results, for comparison:
seq: UUUUGCCAUUACUUUUACAGGCAAAA [hsa-mir-548aa-1]
property.measured: pull-down binding Z-score
quantitative.readout: -0.991
//
seq: GCGGGGUGUGGUGGGGCUGGGGCUGGCCCCCUCCUCACACCUC [hsa-mir-6800]
property.measured: pull-down binding Z-score
quantitative.readout: 4.29
//
seq: GGAGGAGGAGGAGGAGGA [G4_r(GGA)6]
property.measured: pull-down binding Z-score
quantitative.readout: 2.99
//
seq: CUGCGGCCCUGAUGUCUCUACUCCAG [hsa-mir-4691]
property.measured: pull-down binding Z-score
quantitative.readout: 0.703

Now consider a different sequence.
Query block: Item CUGGGUCCUCUGUGCAGGGUCUUACCCAG [hsa-mir-7850] has what recorded pull-down binding Z-score?
Result block: -0.253

----------
- System: TO-N3-2 (biotin conjugate)
- assay.overview: pull-down binding Z-score (relative to library population); higher = stronger binding
- particulars: RNA library: Library-2
As shown below, each of these sequences has a reported pull-down binding Z-score value.
// keep it numeric: no unit symbol after the value

seq: ACUCCUAGGUCACGGAAGU [hsa-mir-6838]
pull-down binding Z-score: -0.0545

Query block: Field request: pull-down binding Z-score | item: GCCUGUGUAGACGGGGACCUGCCCUGCAUGGGCACCCCCUCACUGGC [hsa-mir-6762]
Result block: 0.347

Query block: Give its pull-down binding Z-score value. Item: CUUGAUUUAAUGUCUAUACAAUUAAG [hsa-mir-124-3]
Result block: -0.45

----------
- Tested on: TO-N3 (biotin conjugate)
- assay.overview: pull-down binding Z-score (relative to library population); higher = stronger binding
- particulars: RNA library: Library-2
pull-down binding Z-score below -0.3 gives not fulfilled; pull-down binding Z-score at or above it gives fulfilled.

Query block: Determine whether measured pull-down binding Z-score meets or exceeds -0.3 for AGAAGAACU [hsa-mir-378j]
Result block: fulfilled

Query block: Answer whether pull-down binding Z-score of UGUUUGUGUCUAAACUAUCAAACG [hsa-mir-122] is greater than or equal to -0.3.
Result block: not fulfilled

----------
- Tested on: TO-N3-2 (biotin conjugate)
- assay.overview: pull-down binding Z-score (relative to library population); higher = stronger binding
- particulars: RNA library: Library-2
Examples of sequences with documented pull-down binding Z-score follow.
Lab note: record the figure alone, no unit after it.

See these solved cases before continuing.
seq: GCCUGUGUAAAUGGU [IAV_invivo_NA_6_Motif_8+IAV_invivo_NA_6_Motif_8]
pull-down binding Z-score: -0.434
--
seq: CAUGUGGUGGAACGAUGGAAACGGAACAUG [hsa-mir-218-2]
pull-down binding Z-score: 1

// moving on: another record for pull-down binding Z-score
Query block: What does the record list as pull-down binding Z-score for GACUCUGAGCCAGUGCUCAAAGGAGUC ?
Result block: -0.0814

----------
- System: TO-N3-2 (biotin conjugate)
- assay.overview: pull-down binding Z-score (relative to library population); higher = stronger binding
- particulars: RNA library: Library-2
property.measured: pull-down binding Z-score
Please give the numeric answer without any surrounding text.

Examples from the recorded data:
seq: UGUGACCUGGAGCAGCUCAGGAGGGCUUCCUGGGUGAGGUGGCAGGUUACA [hsa-mir-4311]
quantitative.readout: 1.69
--
seq: UGCUUUGUUAGAAACAAAAAGCA [hsa-mir-4679-1]
quantitative.readout: -0.462

Shift focus to the following entry.
Query block: Requested read-out pull-down binding Z-score, target or system TO-N3-2 (biotin conjugate), entry GCUCUCUGAUGC [IAV_invivo_NP_5_Motif_10+IAV_invivo_NP_5_Motif_10]
Result block: -0.464

----------
- System: TO-3-N3 (biotin conjugate)
- assay.overview: pull-down binding Z-score (relative to library population); higher = stronger binding
- particulars: RNA library: Library-2
property.measured: pull-down binding Z-score
Please give only the number in your answer, with no unit.

Example results:
seq: GGUGCUCCCAAGAGGGAAGCU [IAV_invivo_NP_5_Motif_18+IAV_invivo_NP_5_Motif_18]
pull-down binding Z-score: -0.0194

seq: GUCACACCUUCGGGAACGUGGUUGAC
pull-down binding Z-score: -0.558

seq: AUGAAUCUCUCAU [SHAPE_invivo_SARS-CoV-2_Motif_473]
pull-down binding Z-score: -0.104

seq: ACCAUUCUUCGUAAGGGUGGU
pull-down binding Z-score: -0.172

Query block: What value of pull-down binding Z-score has been reported for the following sequence? CAUGUGCUGAGUUCGUGCCAUAUG [hsa-mir-654]
Result block: -0.615

Query block: So what does the record say about pull-down binding Z-score for GUUGGGCAUCCACAGUCUCCCACC [hsa-mir-1911] ?
Result block: -0.0617

Query block: Recorded pull-down binding Z-score for GAACCUUGCUCUUCUGGAACAUACGAGGGCAAUUC , please?
Result block: 0.401

Query block: GET /values?readout=pull-down binding Z-score&item= GUUGAAAAAUAUCUAUGUAUUAGUAAAC [hsa-mir-649]
Result block: -0.0443

Query block: Please give the measured pull-down binding Z-score for this sequence: UCUUCUUUUGGAAGGAAGA [hsa-mir-3122]
Result block: -0.175

Query block: Which pull-down binding Z-score value belongs to UAUUUUGUUAUUCUGGUCACAGAAUGACCUAGUA [hsa-mir-630] ?
Result block: 0.141

Query block: Quick one: pull-down binding Z-score for AUGGUGCUAACAAAGACGGCAUCAU [SHAPE_invivo_SARS-CoV-2_Motif_545] ?
Result block: 0.0674

Query block: Quick one: pull-down binding Z-score for GGACCCUCUCUCUACCUCU [hsa-mir-4315-1_4315-2] ?
Result block: -0.211

Query block: Item under review: UGUAUAGUAUUAUUCAAUACC [hsa-mir-1912] . Reported pull-down binding Z-score?
Result block: -0.222

Query block: Given the entry CCAUGUAAUCUUUGG [hsa-mir-1302-5] , report its measured pull-down binding Z-score.
Result block: 0.507

Query block: Given the entry CAGGUUUGUGAGAUACUUACCUG [U1snRNP5ss-14] , report its measured pull-down binding Z-score.
Result block: -0.473

----------
- Test system: TO-3-N3 (biotin conjugate)
- assay.overview: pull-down binding Z-score (relative to library population); higher = stronger binding
- particulars: RNA library: Library-2
property.measured: pull-down binding Z-score

seq: GACCUGGAUGUGUAGGAGCUAAGACACACUCCAGGGG [hsa-mir-920]
pull-down binding Z-score: 0.595
--
seq: GGUGUUUUAACU
pull-down binding Z-score: -0.133

Query block: Request the reported pull-down binding Z-score associated with UGGCUUCUGCCUCUUUCUUUGUGGAAGCCA [hsa-mir-4269]
Result block: 0.255

Query block: Quick check: pull-down binding Z-score of GCAUCCAGACAGCGGGCGAAUGC [hsa-mir-6836] ?
Result block: -0.0821

Query block: Reported pull-down binding Z-score, sequence GGAUGGUUACAGGACUAAGGAACAAUCCGUCC [IAV_invivo_HA_4_Motif_14+IAV_invivo_HA_4_Motif_14] : ____
Result block: -0.461

Query block: Reported pull-down binding Z-score, sequence UGGAGCUAGACCACAUGGGUUCA [hsa-mir-5100] : ____
Result block: -0.111

Query block: Requested read-out: pull-down binding Z-score. Entry: GGCAGGGGGAGCUGCAGGGCUAUGGGAGGGGCCCCAGCGUCUGA [hsa-mir-1233-2_1233-1]
Result block: 3.54

Query block: Sample GAGAUGUGAUCCUGCCACAUCUC [hsa-mir-1304] — what was its pull-down binding Z-score?
Result block: -0.09

Query block: Recorded pull-down binding Z-score of UCUUGCCGAAUACCAUAAUGAAUCUGGCUUGA [SHAPE_invivo_SARS-CoV-2_Motif_27] , please.
Result block: -0.617
